IC50 listing for selected binders.
# Tgt: T1, mouse albumin (mouse, UniProt P07724 25-608)
# T1 construct: bought (Sigma); also called MSA; MuSA
# Assay overview: SA08b competition ELISA
Bridges are numbered along the chain shown (N, C = ends). Where no end group is shown, it is not given here.
// units = nM; emit number, no label

The following binders have reported results that may help.
Ac-RLMEDICLARWGCLWEDD-NH2 (disulfide 7-13 (inferred), synthetic; disulfide oxidised) [SA13]	188
DICLPRWGCLW-NH2 (disulfide 3-9 (inferred), synthetic; disulfide oxidised) [SA04]	40

Query binder follows.
Value lookup for IC50; key = QGLIGDICLPRWGCLWGDSV-NH2 (disulfide 8-14 (inferred), synthetic; disulfide oxidised; printed ...GDSV here) [SA07]
6
